Hello, the source for this data is the supplement of paper PMC10567573, in case you need it.

B1: TSN (parent)
chain: FLAAEQDIREEIRKVVQSLEQTAR

# Variants of: B1
# protocol_details: protein stability index of a GFP-peptide fusion (GPS, HEK-293T) (PSI 1-6); higher = more stable;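 also: lentivirally expressed fusions sorted by FACS into six bins by GFP to DsRed ratio, PSI derived from sequencing read proportions per bin multiplied by bin number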
# assay_conditions: c terminus: a fixed tail appended
Here the recorded protein stability index is given for each entry.
Give the value as a plain number.

- variant_string: "E10K"
  protein stability index: 2.15
- variant_string: "D7R"
  protein stability index: 2.35
- variant_string: "L2W"
  protein stability index: 2.02

input: Sample Q6S — what was its protein stability index?
output: 2.25

input: Sample T22S — what was its protein stability index?
output: 1.98

input: Sample K14W — what was its protein stability index?
output: 1.77

input: Sample R13P — what was its protein stability index?
output: 3.64

input: Sample A3Q — what was its protein stability index?
output: 1.73
